Sourced from patent US7649001B2

target: LNCaP type mutant androgen receptor (AR) (Homo sapiens, UniProt P10275, T878A); test: AR-binding inhibition test (LNCaP type); settings: read-out: Inhibition rate (%) at 100 nM LNCaP type
Sequence (P10275 whole entry T878A): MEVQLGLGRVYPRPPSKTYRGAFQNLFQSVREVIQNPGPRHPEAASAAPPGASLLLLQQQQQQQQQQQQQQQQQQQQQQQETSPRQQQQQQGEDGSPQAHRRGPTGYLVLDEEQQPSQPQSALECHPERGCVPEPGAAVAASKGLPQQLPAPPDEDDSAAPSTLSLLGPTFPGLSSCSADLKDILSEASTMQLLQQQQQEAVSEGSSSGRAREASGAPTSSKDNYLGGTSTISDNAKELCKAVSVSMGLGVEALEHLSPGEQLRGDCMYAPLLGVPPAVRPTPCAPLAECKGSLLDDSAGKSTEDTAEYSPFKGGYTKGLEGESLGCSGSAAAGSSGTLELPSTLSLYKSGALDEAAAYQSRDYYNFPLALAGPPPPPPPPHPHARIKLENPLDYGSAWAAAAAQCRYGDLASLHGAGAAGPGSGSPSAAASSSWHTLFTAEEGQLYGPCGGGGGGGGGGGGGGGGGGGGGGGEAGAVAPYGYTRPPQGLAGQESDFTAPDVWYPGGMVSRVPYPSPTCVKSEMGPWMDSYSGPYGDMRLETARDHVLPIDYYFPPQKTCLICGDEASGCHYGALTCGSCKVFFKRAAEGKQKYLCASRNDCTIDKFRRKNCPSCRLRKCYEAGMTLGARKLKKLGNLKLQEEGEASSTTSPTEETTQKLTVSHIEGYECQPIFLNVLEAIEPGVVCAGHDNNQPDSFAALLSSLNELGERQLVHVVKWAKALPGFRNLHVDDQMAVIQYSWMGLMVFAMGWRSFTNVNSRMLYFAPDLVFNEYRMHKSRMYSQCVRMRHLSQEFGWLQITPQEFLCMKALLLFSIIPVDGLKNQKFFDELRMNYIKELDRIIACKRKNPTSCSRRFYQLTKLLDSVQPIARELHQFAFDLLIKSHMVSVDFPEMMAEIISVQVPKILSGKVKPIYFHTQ
Counter-ions that a name gives are not always drawn.
endpoint_label: inhibition at 0.1 µM (%)
Record the value in %, omitting the unit from your answer.

Example compounds with recorded inhibition at 0.1 µM:
compound: C[C@H]1[C@H](O)CCN1c1ccc(C#N)c2sccc12 [Compound 115]
uom: %
inhibition at 0.1 µM: 97

compound: CC[C@@H]1CCCN1c1ccc(C#N)c2ccccc12 [Compound 84]
uom: %
inhibition at 0.1 µM: 93

query: Give the reported inhibition at 0.1 µM for this compound. N#Cc1ccc(N2CCC(CO)CC2)c2ccccc12 [Compound 30]
result: 113

query: Give the reported inhibition at 0.1 µM for this compound. CC(C)[C@H]1CCCN1c1ccc(C#N)c2ccccc12 [Compound 144]
result: 102

query: Give the reported inhibition at 0.1 µM for this compound. N#Cc1ccc(N2CCC(CCO)CC2)c2ccccc12 [Compound 78]
result: 97

query: Give the reported inhibition at 0.1 µM for this compound. CC1(CO)CCCN(c2ccc(C#N)c3ccccc23)C1 (stereo not shown) [Compound 56]
result: 91

query: Give the reported inhibition at 0.1 µM for this compound. N#Cc1ccc(N2CCC(CO)C2)c2ccccc12 (stereo not shown) [Compound 50, hydrochloride]
result: 102

* * *

target: LNCaP type mutant androgen receptor (AR) (Homo sapiens, UniProt P10275, T878A); experiment: AR-binding inhibition test (LNCaP type); details: read-out: Inhibition rate (%) at 100 nM LNCaP type
Counter-ions that a name gives are not always drawn.
Here the recorded inhibition at 0.1 µM is given for each entry.
Record the value in %, omitting the unit from your answer.

Example molecules with recorded inhibition at 0.1 µM:
molecule: CO[C@@H]1CCN(c2ccc(C#N)c3ccccc23)[C@H]1C [Compound 139]
experimental_system: LNCaP type mutant androgen receptor (AR) (Homo sapiens, UniProt P10275, T878A)
endpoint_label: inhibition at 0.1 µM
result_value: 99
--
molecule: CC1CCCN1c1ccc(C#N)c2sccc12 (centres unmarked) [Compound 76]
experimental_system: LNCaP type mutant androgen receptor (AR) (Homo sapiens, UniProt P10275, T878A)
endpoint_label: inhibition at 0.1 µM
result_value: 97
--
molecule: N#Cc1ccc(N2CCC(CCO)C2)c2ccsc12 (centres unmarked) [Compound 101]
experimental_system: LNCaP type mutant androgen receptor (AR) (Homo sapiens, UniProt P10275, T878A)
endpoint_label: inhibition at 0.1 µM
result_value: 97

query: Give the reported inhibition at 0.1 µM for this molecule. C[C@H]1[C@@H](O)CCN1c1ccc(C#N)c2ccccc12 [Compound 116]
result: 94

query: Give the reported inhibition at 0.1 µM for this molecule. CC1CCCN1c1ccc(C#N)c2ccccc12 (centres unmarked) [Compound 47, hydrochloride]
result: 116

query: Give the reported inhibition at 0.1 µM for this molecule. C[C@H]1[C@@H](CO)CCN1c1ccc(C#N)c2ccccc12 [Compound 107]
result: 93

query: Give the reported inhibition at 0.1 µM for this molecule. CC[C@H]1CCCN1c1ccc(C#N)c2ccccc12 [Compound 83]
result: 102

* * *

Here the recorded inhibition at 0.1 µM is given for each entry.
biological target: LNCaP type mutant androgen receptor (AR) (Homo sapiens, UniProt P10275, T878A); assay: AR-binding inhibition test (LNCaP type); settings: read-out: Inhibition rate (%) at 100 nM LNCaP type
Record the value in %, omitting the unit from your answer.

molecule: N#Cc1ccc(N2CCCCCC2)c2ccccc12
endpoint_label: inhibition at 0.1 µM
result_value: 144

query: Give the reported inhibition at 0.1 µM for this molecule. N#Cc1ccc(N2CCC(F)C2)c2ccsc12 (centres unmarked)
result: 92

query: Give the reported inhibition at 0.1 µM for this molecule. "C=C[C@H]1CCCN1c1ccc(C#N)c2ccccc12"
result: 100

query: Give the reported inhibition at 0.1 µM for this molecule. CC1CCCN1c1ccc(C#N)c2occc12 (centres unmarked)
result: 105

query: Give the reported inhibition at 0.1 µM for this molecule. "C[C@H]1C[C@@H](O)CN1c1ccc(C#N)c2sccc12"
result: 99

* * *

Structures can show the parent of a compound that is named as a salt.
Here the recorded melting point is given for each entry.

Example molecules with recorded melting point:
molecule: CC1CCCN1c1ccc(C#N)c2occc12 (stereo not shown)
endpoint_label: melting point
result_value: 82 to 83 °C
--
molecule: N#Cc1ccc(N2CCCCC2)c2ccsc12
endpoint_label: melting point
result_value: 99 to 100 °C
--
molecule: COC[C@H]1CCCN1c1ccc(C#N)c2ccccc12 (as salt: hydrochloride)
endpoint_label: melting point
result_value: 88 to 89 °C
--
molecule: N#Cc1ccc(N2CCC(CO)CC2)c2ccccc12
endpoint_label: melting point
result_value: 135 to 136 °C
--
molecule: N#Cc1ccc(N2CCC(CCO)C2)c2ccsc12 (stereo not shown)
endpoint_label: melting point
result_value: 109 to 111 °C
--
molecule: C[C@H]1[C@@H](C#N)CCN1c1ccc(C#N)c2ccccc12
endpoint_label: melting point
result_value: 143 to 145 °C
--
molecule: N#Cc1ccc(N2CCSCC2)c2ccccc12
endpoint_label: melting point
result_value: 130 to 131 °C
--
molecule: C[C@H]1[C@@H](C(N)=O)CCN1c1ccc(C#N)c2ccccc12
endpoint_label: melting point
result_value: 204 to 206 °C
--
molecule: N#Cc1ccc(N2CCC(F)C2)c2ccsc12 (stereo not shown)
endpoint_label: melting point
result_value: 151 to 152 °C
--
molecule: C[C@H]1[C@H](O)CCN1c1ccc(C#N)c2sccc12
endpoint_label: melting point
result_value: 145 to 146 °C

query: Give the reported melting point for this molecule. "C[C@H]1C[C@@H](O)CN1c1ccc(C#N)c2sccc12"
result: 102 to 103 °C

query: Give the reported melting point for this molecule. "N#Cc1ccc(N2CCC(CCO)CC2)c2ccccc12"
result: 128 to 129 °C

query: Give the reported melting point for this molecule. "N#Cc1c(Br)cc(N2CCCCC2)c2ccccc12"
result: 179 to 180 °C

query: Give the reported melting point for this molecule. "CO[C@@H]1C[C@H](C)N(c2ccc(C#N)c3ccccc23)C1"
result: 88 to 89 °C

query: Give the reported melting point for this molecule. N#Cc1ccc(N2CCC(O)C2)c2ccccc12 (stereo not shown)
result: 138 to 139 °C

query: Give the reported melting point for this molecule. "CN1C(=O)CCN1c1ccc(C#N)c2ccccc12"
result: 192 to 193 °C

* * *

target: wild type androgen receptor (AR) (Homo sapiens, UniProt P10275); assay: AR-binding inhibition test (wild type); details: read-out: Inhibition rate (%) at 100 nM Wild type
Sequence (P10275 whole entry): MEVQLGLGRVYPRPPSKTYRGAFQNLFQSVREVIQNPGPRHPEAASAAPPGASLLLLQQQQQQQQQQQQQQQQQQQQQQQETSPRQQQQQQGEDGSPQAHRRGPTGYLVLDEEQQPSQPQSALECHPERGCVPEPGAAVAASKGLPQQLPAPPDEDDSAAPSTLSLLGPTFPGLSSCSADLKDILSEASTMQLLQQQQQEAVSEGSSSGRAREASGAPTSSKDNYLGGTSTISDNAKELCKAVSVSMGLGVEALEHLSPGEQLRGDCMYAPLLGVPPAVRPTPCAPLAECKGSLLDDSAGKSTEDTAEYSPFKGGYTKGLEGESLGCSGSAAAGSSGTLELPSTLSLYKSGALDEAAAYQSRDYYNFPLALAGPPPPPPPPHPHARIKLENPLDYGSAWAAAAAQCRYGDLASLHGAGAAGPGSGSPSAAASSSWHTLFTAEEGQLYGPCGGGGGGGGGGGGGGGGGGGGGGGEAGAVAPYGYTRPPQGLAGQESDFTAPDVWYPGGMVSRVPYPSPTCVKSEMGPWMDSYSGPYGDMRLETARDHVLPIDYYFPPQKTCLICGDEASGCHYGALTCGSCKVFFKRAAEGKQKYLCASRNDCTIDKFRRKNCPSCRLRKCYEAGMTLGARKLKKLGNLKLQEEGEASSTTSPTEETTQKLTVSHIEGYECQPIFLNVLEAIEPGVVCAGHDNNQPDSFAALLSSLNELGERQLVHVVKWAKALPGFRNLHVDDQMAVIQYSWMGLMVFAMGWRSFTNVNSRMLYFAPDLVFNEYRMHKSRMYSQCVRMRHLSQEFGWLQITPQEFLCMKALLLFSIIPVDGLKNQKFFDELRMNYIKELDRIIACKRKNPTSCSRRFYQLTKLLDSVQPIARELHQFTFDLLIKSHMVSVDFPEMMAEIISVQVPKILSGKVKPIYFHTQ
Here the recorded inhibition at 0.1 µM is given for each entry.
Record the value in %, omitting the unit from your answer.

Example compounds with recorded inhibition at 0.1 µM:
compound: N#Cc1ccc(N2CCCCC2)c2ccsc12
inhibition at 0.1 µM, %: 95

compound: N#Cc1ccc(N2CCC(F)C2)c2ccsc12 (stereo not drawn)
inhibition at 0.1 µM, %: 97

compound: N#Cc1ccc(N2CCC(CCO)CC2)c2ccccc12
inhibition at 0.1 µM, %: 92

compound: CO[C@@H]1CCN(c2ccc(C#N)c3ccccc23)[C@H]1C
inhibition at 0.1 µM, %: 95

compound: N#Cc1ccc(N2CCCCCC2)c2ccccc12
inhibition at 0.1 µM, %: 112

compound: CC[C@H]1CCCN1c1ccc(C#N)c2ccccc12
inhibition at 0.1 µM, %: 95

compound: N#Cc1ccc(N2CCSCC2)c2ccccc12
inhibition at 0.1 µM, %: 92

compound: N#Cc1ccc(N2CCC(CO)CC2)c2ccccc12
inhibition at 0.1 µM, %: 105

# context switch: different compound, same inhibition at 0.1 µM
query: Give the reported inhibition at 0.1 µM for this compound. N#Cc1ccc(N2CCC(F)C2)c2ccccc12 (stereo not drawn)
result: 98

* * *

target: LNCaP type mutant androgen receptor (AR) (Homo sapiens, UniProt P10275, T878A); test: AR-binding inhibition test (LNCaP type); conditions: read-out: Inhibition rate (%) at 100 nM LNCaP type
Here the recorded inhibition at 0.1 µM is given for each entry.
Don't forget the unit after the number, please.

Example molecules with recorded inhibition at 0.1 µM:
molecule: C[C@H]1[C@@H](O)CCN1c1ccc(C#N)c2sccc12
inhibition at 0.1 µM: 95%

molecule: N#Cc1ccc(N2CCSCC2)c2ccccc12
inhibition at 0.1 µM: 96%

query: Give the reported inhibition at 0.1 µM for this molecule. "N#Cc1ccc(N2CCCC2)c2ccccc12"
result: 78%

query: Give the reported inhibition at 0.1 µM for this molecule. "N#Cc1ccc(N2CCCCC2)c2ccccc12"
result: 97%

query: Give the reported inhibition at 0.1 µM for this molecule. "C=C[C@@H]1CCCN1c1ccc(C#N)c2ccccc12"
result: 94%

query: Give the reported inhibition at 0.1 µM for this molecule. N#Cc1ccc(N2CCC(CCO)C2)c2ccccc12 (stereo not shown)
result: 101%
